SYSTEM UNDER TEST: LPAR1 receptor (Homo sapiens, UniProt Q92633)
Construct: expressed in transfected cells
Sequence (Q92633 whole entry): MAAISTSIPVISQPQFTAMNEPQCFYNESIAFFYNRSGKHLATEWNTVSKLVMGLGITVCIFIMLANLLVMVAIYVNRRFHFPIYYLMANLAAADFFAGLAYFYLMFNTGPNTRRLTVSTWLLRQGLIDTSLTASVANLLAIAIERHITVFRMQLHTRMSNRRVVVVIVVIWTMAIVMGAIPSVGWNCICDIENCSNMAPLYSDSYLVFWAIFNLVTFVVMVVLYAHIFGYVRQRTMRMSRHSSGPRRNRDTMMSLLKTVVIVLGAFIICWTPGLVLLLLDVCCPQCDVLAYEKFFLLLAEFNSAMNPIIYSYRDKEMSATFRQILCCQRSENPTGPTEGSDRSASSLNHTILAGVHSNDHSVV
ASSAY DETAILS: LPAR1 in vitro biological activity evaluation 2: HTRF cAMP kit (LANCE Ultra cAMP Kit) assay in CHO stable transfected cell line expressing the LPAR1 receptor
Assay type: cell-based
CONDITION PARAMETERS: Table 2, read-out: LPAR1 inhibitory activity IC50
EXPERIMENTAL READOUT: pIC50
Lab note: report pIC50 as minus log10 of the concentration in molar units, number only.

Consider the worked cases shown below.
                                   molecule  experimental_readout  quantitative_result
0  COC1CC(C#Cc2ccc(-c3nnn(C)c3NC(=O)O[C@H](C)c3ccccc3)nc2C)(CC(=O)O)C1 (stereo partly drawn) [compound 464]                 pIC50                 7.63
1  CCCC(C)OC(=O)Nc1c(-c2ccc(C#CC3CCCC3C(=O)O)c(C)n2)nnn1C (single isomer, unassigned) [305-A]                 pIC50                 7.59
2  CCOC1CC(C#Cc2ccc(-c3nnn(C)c3NC(=O)O[C@H](C)CC(C)(F)F)nc2C)(CC(=O)O)C1 (stereo partly drawn) [compound 430]                 pIC50                 7.20
3  C[C@H](CC(C)(F)F)OC(=O)Nc1c(-c2ccc(C#CC3(CC(=O)O)CC4(CC4)C3)c(C(F)(F)F)n2)nnn1C [compound 498]                 pIC50                 8.22
4  COC1CC(C#Cc2ccc(-c3nnn(C)c3NC(=O)O[C@H](C)c3ccccc3Cl)nc2C)(CC(=O)O)C1 (stereo partly drawn) [compound 465]                 pIC50                 7.51

Request body: readout pIC50, system LPAR1 receptor (Homo sapiens, UniProt Q92633), query CCOC1CC(C#Cc2ccc(-c3nnn(C)c3NC(=O)O[C@H](C)C(F)(F)CC)nc2CC)(CC(=O)O)C1 (stereo partly drawn) [compound 489] . Return the value.
7.85
